Where do the numbers come from? From patent US9611254B2.

Parameter: IC50. Scope: all listed entries.
# System: Aβ42
# protocolDetails: HEK assay: Aβ42 secreted by HEK cells stably expressing APPswe (Meso Scale electrochemiluminescence)
# Assay type: cell-based, Human
# cond: Homo sapiens, HEK293, HEK cell line stably expressing APPswe; 4-6 hours incubation with compound; Aβ42 in cell medium; read-out: pIC50 Aβ42 HEK assay (converted)
Unit µM implied. Number only.

Take a look at these entries with their results.
COc1cc(Nc2nc(N3CC(c4ccccc4)C3)n(C)n2)ccc1-n1cnc(C)c1 [Example 3]
0.0398
COc1cc(Nc2nc(N3CCC3c3ccccc3)n(CC(C)(C)O)n2)ccc1-n1cnc(C)c1 (single isomer, unassigned; isomer 1) [Example 6]
0.0251
COc1cc(Nc2nc(N3CCC3c3ccccc3)n(C)n2)ccc1-n1cnc(C)c1 (centres unmarked) [Example 4]
0.0251
COc1cc(Nc2nc(N3CCC3c3ccccc3)n(CC(C)(C)O)n2)ccc1-n1cnc(C)c1 (racemic) [Example 5]
0.0251
COc1cc(Nc2nc(N3CC(F)(c4ccccc4)C3)n(CC(C)(C)O)n2)ccc1-n1cnc(C)c1 [Example 2]
0.0501

Response field IC50 (Aβ42) for item COc1cc(Nc2nc(N3CC(c4ccccc4)C3)n(CC(C)(C)O)n2)ccc1-n1cnc(C)c1 [Example 1] : 0.0398

Response field IC50 (Aβ42) for item COc1cc(Nc2nc(N3CCC34CCCC4)n(CC(C)(C)O)n2)ccc1-n1cnc(C)c1 [Example 9] : 0.0316

Response field IC50 (Aβ42) for item COc1cc(Nc2nc(N3CC4(CCC4)C3)n(CC(C)(C)O)n2)ccc1-n1cnc(C)c1 [Example 8] : 0.0501
